Listed below: r2 (Apo) values for each entry.
- assay_name: T1 and T2 relaxivity measurements at 9.4 T (400 MHz NMR)
- Type: physicochemical
- study_conditions: PBS buffer pH 7.4, 37 °C, without Gln
Report the value in mM⁻¹ s⁻¹ with no unit label.

Req: I have this molecule here, [Dy(DOTA-malN)]72-A126D: swArM: Dy(DOTA-mal^N) on T72C/A126D double variant of GlnBP (conjugate, UniProt P0AEQ3 23-248, looked up, variant T72C A126D, Dy(DOTA-malN) at Cys72, swArM: Dy(DOTA-mal^N) on T72C/A126D double variant of GlnBP) Glutamine-binding periplasmic …: ADKKLVVATDTAFVPFEFKQGDKYVGFDVDLWAAIAKELKLDYELKPMDFSGIIPALQTKNVDLALAGITICDERKKAIDFSDGYYKSGLLVMVKANNNDVKSVKDLDGKVVAVKSGTGSVDYAKDNIKTKDLRQFPNIDNAYMELGTNRADAVLHDTPNILYFIKTAGNGQFKAVGDSLEAQQYGIAFPKGSDELRDKVNGALKTLRENGTYNEIYKKWFGTEPK , and I need its recorded r2 (Apo).
Resp: 9.5

# next molecule below
Req: Report r2 (Apo) for [Dy(DOTA-mal^N)]72-A126Y: swArM: Dy(DOTA-mal^N) on T72C/A126Y double variant of GlnBP (conjugate, UniProt P0AEQ3 23-248, looked up, variant T72C A126Y, Dy(DOTA-malN) at Cys72, swArM: Dy(DOTA-mal^N) on T72C/A126Y double variant of GlnBP) Glutamine-binding periplasmic …: ADKKLVVATDTAFVPFEFKQGDKYVGFDVDLWAAIAKELKLDYELKPMDFSGIIPALQTKNVDLALAGITICDERKKAIDFSDGYYKSGLLVMVKANNNDVKSVKDLDGKVVAVKSGTGSVDYAKYNIKTKDLRQFPNIDNAYMELGTNRADAVLHDTPNILYFIKTAGNGQFKAVGDSLEAQQYGIAFPKGSDELRDKVNGALKTLRENGTYNEIYKKWFGTEPK please.
Resp: 6.8

These data points were gathered from paper PMC12699829.
